measurementTarget: PRMT4 (Homo sapiens)
Sequence (Q86X55 1-608): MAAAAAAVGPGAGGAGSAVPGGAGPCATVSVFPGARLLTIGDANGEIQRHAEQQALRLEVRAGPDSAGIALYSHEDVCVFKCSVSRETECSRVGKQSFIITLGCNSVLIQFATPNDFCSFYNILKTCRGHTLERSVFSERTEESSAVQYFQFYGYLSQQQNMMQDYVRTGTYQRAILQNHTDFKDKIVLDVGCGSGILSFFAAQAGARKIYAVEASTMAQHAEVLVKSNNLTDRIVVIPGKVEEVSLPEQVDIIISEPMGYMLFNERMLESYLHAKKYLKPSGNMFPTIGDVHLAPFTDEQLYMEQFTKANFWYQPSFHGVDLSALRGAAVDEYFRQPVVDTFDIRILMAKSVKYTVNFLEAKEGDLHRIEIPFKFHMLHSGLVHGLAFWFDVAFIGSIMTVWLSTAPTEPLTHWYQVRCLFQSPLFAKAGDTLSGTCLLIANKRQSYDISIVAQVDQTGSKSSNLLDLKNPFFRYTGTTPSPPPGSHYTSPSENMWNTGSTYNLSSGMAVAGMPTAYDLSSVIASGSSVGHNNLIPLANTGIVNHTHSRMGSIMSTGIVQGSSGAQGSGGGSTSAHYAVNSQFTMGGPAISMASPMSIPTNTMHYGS
testDescription: radioactive assay (Reaction Biology Corp.), inhibition of PRMT4
Assay type: biochemical
Exercise: state measured inhibition at 10 µM for each of the compounds provided.
Number in %, nothing else.

State the recorded inhibition at 10 µM for this entry: COc1cc2nc(-c3cccc(F)c3)nc(NCCSC[C@H]3O[C@@H](n4cnc5c(N)ncnc54)[C@H](O)[C@@H]3O)c2cc1OC [Compound 12c]
62

Which inhibition at 10 µM value belongs to N=C(NCCCSC[C@H]1O[C@@H](n2cnc3c(N)ncnc32)[C@H](O)[C@@H]1O)Nc1cccc(-c2ccc(F)c(O)c2)c1 ?
100

Could you tell me which inhibition at 10 µM is on file for Nc1ncnc2c1ncn2[C@@H]1O[C@H](CSCCCNCc2cccc(-c3cncnc3)c2)[C@@H](O)[C@H]1O [Compound 10s] ?
97
